Biological target: human melanocortin 4 receptor (human, UniProt P32245 1-332)
Sequence (P32245 whole entry): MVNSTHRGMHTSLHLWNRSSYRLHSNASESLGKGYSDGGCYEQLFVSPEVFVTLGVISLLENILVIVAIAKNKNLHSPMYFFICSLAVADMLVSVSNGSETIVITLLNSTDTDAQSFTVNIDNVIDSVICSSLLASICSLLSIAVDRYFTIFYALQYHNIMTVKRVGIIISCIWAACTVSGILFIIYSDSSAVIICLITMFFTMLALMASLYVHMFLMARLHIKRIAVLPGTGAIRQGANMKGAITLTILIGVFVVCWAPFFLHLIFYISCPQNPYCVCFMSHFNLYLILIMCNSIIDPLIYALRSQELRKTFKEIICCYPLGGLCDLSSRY
Experiment: cell-based or functional assay
Positions of bridges follow the written chain, without caps; N, C: chain ends. Non-standard residues stand in square brackets, D forms with d. Hyp = O=C(O)[C@@H]1C[C@@H](O)CN1; Orn = NCCC[C@H](N)C(=O)O; Thz = O=C(O)[C@@H]1CSCN1
Reported MC4R cAMP EC50 values for the following binders.
Field: numeric (nM). Do not append units.

Example binders with recorded MC4R cAMP EC50:
[[record]]
binder = "cyclo(AAH[dF]RWAAH[dF]RW) (SMILES C[C@@H]1NC(=O)[C@H](C)NC(=O)[C@H](Cc2c[nH]c3ccccc23)NC(=O)[C@H](CCCNC(=N)N)NC(=O)[C@@H](Cc2ccccc2)NC(=O)[C@H](Cc2c[nH]cn2)NC(=O)[C@H](C)NC(=O)[C@H](C)NC(=O)[C@H](Cc2c[nH]c3ccccc23)NC(=O)[C@H](CCCNC(=N)N)NC(=O)[C@@H](Cc2ccccc2)NC(=O)[C@H](Cc2c[nH]cn2)NC1=O, also called c[Ala-Ala-His-D-Phe-Arg-Trp-Ala-Ala-His-D-Phe-Arg-Trp]) [Chem. 7]"
quantity_measured = "MC4R cAMP EC50"
unit_annotation = "nM"
val = 0.06

[[record]]
binder = "cyclo(C[Thz]H[dF]HWCAKKKW) (disulfide 1-7; SMILES C[C@@H]1NC(=O)[C@@H]2CSSC[C@H](NC(=O)[C@H](Cc3c[nH]c4ccccc34)NC(=O)[C@H](CCCCN)NC(=O)[C@H](CCCCN)NC(=O)[C@H](CCCCN)NC1=O)C(=O)N1CSC[C@H]1C(=O)N[C@@H](Cc1c[nH]cn1)C(=O)N[C@H](Cc1ccccc1)C(=O)N[C@@H](Cc1c[nH]cn1)C(=O)N[C@@H](Cc1c[nH]c3ccccc13)C(=O)N2, also called c[c[Cys-THAZ-His-D-Phe-His-Trp-Cys]-Ala-Lys-Lys-Lys-Trp]) [Chem. 81]"
quantity_measured = "MC4R cAMP EC50"
unit_annotation = "nM"
val = 0.07

[[record]]
binder = "cyclo(CH[dF]RWGCH[dF]RWG) (disulfide 1-7; SMILES N=C(N)NCCC[C@@H]1NC(=O)[C@@H](Cc2ccccc2)NC(=O)[C@H](Cc2c[nH]cn2)NC(=O)[C@@H]2CSSC[C@H](NC(=O)CNC(=O)[C@H](Cc3c[nH]c4ccccc34)NC1=O)C(=O)N[C@@H](Cc1c[nH]cn1)C(=O)N[C@H](Cc1ccccc1)C(=O)N[C@@H](CCCNC(=N)N)C(=O)N[C@@H](Cc1c[nH]c3ccccc13)C(=O)NCC(=O)N2, also called c[c[Cys-His-D-Phe-Arg-Trp-Gly-Cys]-His-D-Phe-Arg-Trp-Gly]) [Chem. 4]"
quantity_measured = "MC4R cAMP EC50"
unit_annotation = "nM"
val = 0.09

[[record]]
binder = "cyclo(C[Hyp][dF]RWC[Hyp][dF]RW) (bridge 1-6 via methylene bridge (S-CH2-S), also called c[c[Cys-Hyp-D-Phe-Arg-Trp-Cys]-Hyp-D-Phe-Arg-Trp]; Note: methylene bridge) [Chem. 26]"
quantity_measured = "MC4R cAMP EC50"
unit_annotation = "nM"
val = 0.18

[[record]]
binder = "CXHFRWCXHFRW (Aib 2, 8; D-Phe 4, 10; disulphide Cys1-Cys7; head-to-tail amide Cys1-Trp12, also called c[c[Cys-Aib-His-D-Phe-Arg-Trp-Cys]-Aib-His-D-Phe-Arg-Trp]) [Chem. 9]"
quantity_measured = "MC4R cAMP EC50"
unit_annotation = "nM"
val = 0.02


The binder listed as cyclo(CPH[dF]HWCAKKHR) (disulfide 1-7; SMILES C[C@@H]1NC(=O)[C@@H]2CSSC[C@H](NC(=O)[C@H](CCCNC(=N)N)NC(=O)[C@H](Cc3c[nH]cn3)NC(=O)[C@H](CCCCN)NC(=O)[C@H](CCCCN)NC1=O)C(=O)N1CCC[C@H]1C(=O)N[C@@H](Cc1c[nH]cn1)C(=O)N[C@H](Cc1ccccc1)C(=O)N[C@@H](Cc1c[nH]cn1)C(=O)N[C@@H](Cc1c[nH]c3ccccc13)C(=O)N2, also called c[c[Cys-Pro-His-D-Phe-His-Trp-Cys]-Ala-Lys-Lys-His-Arg]) [Chem. 95] has a reported MC4R cAMP EC50 of 0.22

Value of measured MC4R cAMP EC50 for the entry CAHFXWCAHFXW (D-Phe 4, 10; HArg 5, 11; disulphide Cys1-Cys7; head-to-tail amide Cys1-Trp12, also called c[c[Cys-Ala-His-D-Phe-HArg-Trp-Cys]-Ala-His-D-Phe-HArg-Trp]) [Chem. 22] : 0.02

// cyclo(CH[dF]RWACH[dF]RWA) (disulfide 1-7; SMILES C[C@@H]1NC(=O)[C@H](Cc2c[nH]c3ccccc23)NC(=O)[C@H](CCCNC(=N)N)NC(=O)[C@@H](Cc2ccccc2)NC(=O)[C@H](Cc2c[nH]cn2)NC(=O)[C@@H]2CSSC[C@H](NC1=O)C(=O)N[C@@H](Cc1c[nH]cn1)C(=O)N[C@H](Cc1ccccc1)C(=O)N[C@@H](CCCNC(=N)N)C(=O)N[C@@H](Cc1c[nH]c3ccccc13)C(=O)N[C@@H](C)C(=O)N2, also called c[c[Cys-His-D-Phe-Arg-Trp-Ala-Cys]-His-D-Phe-Arg-Trp-Ala]) [Chem. 5] : MC4R cAMP EC50 value = 0.21

Lookup result for cyclo(C[Thz]H[dF]HWCA[Orn]E[Orn]R) (disulfide 1-7; SMILES C[C@@H]1NC(=O)[C@@H]2CSSC[C@H](NC(=O)[C@H](CCCNC(=N)N)NC(=O)[C@H](CCCN)NC(=O)[C@H](CCC(=O)O)NC(=O)[C@H](CCCN)NC1=O)C(=O)N1CSC[C@H]1C(=O)N[C@@H](Cc1c[nH]cn1)C(=O)N[C@H](Cc1ccccc1)C(=O)N[C@@H](Cc1c[nH]cn1)C(=O)N[C@@H](Cc1c[nH]c3ccccc13)C(=O)N2) [Chem. 119] ; measured MC4R cAMP EC50: 0.06

The value of MC4R cAMP EC50 measured for the binder cyclo(C[Thz]H[dF]HWCAEDAW) (disulfide 1-7; SMILES C[C@@H]1NC(=O)[C@H](CC(=O)O)NC(=O)[C@H](CCC(=O)O)NC(=O)[C@H](C)NC(=O)[C@@H]2CSSC[C@H](NC(=O)[C@H](Cc3c[nH]c4ccccc34)NC1=O)C(=O)N1CSC[C@H]1C(=O)N[C@@H](Cc1c[nH]cn1)C(=O)N[C@H](Cc1ccccc1)C(=O)N[C@@H](Cc1c[nH]cn1)C(=O)N[C@@H](Cc1c[nH]c3ccccc13)C(=O)N2, also called c[c[Cys-THAZ-His-D-Phe-His-Trp-Cys]-Ala-Glu-Asp-Ala-Trp]) [Chem. 108] turned out to be 2.52
